Assay: binders of probe aFGF2 on microarray, primary screen, stem cell growth factor project, biochemical, small-molecule microarray, fluorescence 635/667 (AID 1067);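 also: measures binding of biotinylated aFGF2 protein to printed compounds on slides; z-score merges feature fluorescence and signal-to-noise across triplicate slides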
Details: higher = more signal
Reported composite z-score by item:

compound	composite z-score
CCN1C(C)=C(C(=O)OC)[C@@H](c2ccccc2)N2C(=O)[C@@]3(C(=O)OC)O[C@@]12[C@@H]1C(=O)N(C)C(=O)[C@@H]13	-0.0125
O=C1OCCC=C[C@H]2OC34C=CCN(Cc5ccccc5)C(=O)[C@H]3N(CCO)C(=O)[C@@H]4C12 (some centres not stated)	-0.183
CO[C@H]1O[C@H](CO)[C@@H](OC(=O)CCc2ccccc2)[C@@H]2OC(=O)[C@H](Cc3cccc(Br)c3)C/C=C/C[C@@H](Cc3cccc(Br)c3)C(=O)O[C@@H]12	-0.139
COc1ccc(NN2C(C(O)c3cc(OC)c(OC)c(OC)c3)C=CC3C(=O)N(C4CCCCC4)C(=O)C32)cc1 (configuration not stated)	0.123
COc1ccc([Si](C)(C)[C@@H]2[C@@H](CCO)O[C@]3(C(=O)N(Cc4ccccc4)c4ccccc43)[C@H]2C)cc1	-0.0692
CO[C@H]1O[C@H](CO)[C@@H](OC(=O)Nc2ccccc2)[C@H](OC(=O)Nc2ccc3c(c2)OCO3)[C@@H]1OC(=O)Nc1ccc2c(c1)OCO2	-0.0784
O=C1O[C@H](c2ccccc2)[C@H](c2ccccc2)N2[C@H]1[C@@H](C(=O)NC[C@H](O)c1ccccc1)[C@]1(C(=O)Nc3ccc(C#CC4=CCCCC4)cc31)[C@H]2c1ccc(OCCO)cc1	-0.0579
CC1=C([C@H](O)CCc2ccccc2)[C@H](CO)[C@@H]2C(=O)N(Cc3ccccc3)C(=O)[C@@H]2C1	0.0137
C[C@@H]1CC[C@H]2C(=O)N3CCC[C@H]3C(=O)N2[C@H]1c1ccc(Br)cc1	-0.11
C=C(C(=O)CC[C@H](OC(=O)c1ccccc1-c1ccccc1C(=O)O)c1ccc(CO)o1)C(C)C	-0.0974
CO[C@H]1COC(=O)CC=C[C@@H](C)COC(=O)[C@@H](C)NC(=O)CC=C[C@@H]1C	-0.138
C=CC[C@@]1(C(=O)NCC(O)CO)N=C(c2ccc(OCCCO)cc2)O[C@@H]1c1ccccc1CN=[N+]=[N-] (some centres not stated)	-0.11
CO[C@@H]1COC(=O)[C@@H]2CCCN2C(=O)CC=C[C@@H](C)[C@H](OC)COC(=O)[C@@H]2CCCN2C(=O)CC=C[C@H]1C	-0.113
Cc1ccc(S[C@]2(C(=O)NC(C)C)CC(=O)N(Cc3cc(C(F)(F)F)cc(C(F)(F)F)c3)[C@@H]2c2ccc(CO)cc2I)cc1	-0.103
CC(=O)NCCCC[C@@H]1NC(=O)[C@@H]2C[C@H](C(=O)NCCCCCNC(=O)CS)[C@H](c3ccc(O)cc3)N2C1=O	-0.226
CO[C@H]1COC(=O)[C@@H](C)COC(=O)[C@H](Cc2ccccc2)NC(=O)CC=C[C@H]1C	-0.107
Cc1ccc(N2C(=O)c3ccccc3[C@@H](C(=O)NCc3ccccc3)[C@@H]2c2ccc(CO)cc2)nc1	-0.128
O=C1c2ccccc2[C@](Cc2ccccc2I)(C(=O)NCc2ccccc2)[C@H](c2ccc(CO)cc2)N1Cc1ccccc1C(F)(F)F	-0.131
COc1cc2c(cc1OC)CN(C(=O)[C@@H]1[C@H]3C(=O)O[C@H](c4ccccc4)[C@H](c4ccccc4)N3[C@H](c3ccccc3OCCO)[C@@]13C(=O)Nc1ccccc13)CC2	-0.148
COCCOC(=O)N1C(=O)[C@@]2(c3cc(C#CCC(C(=O)OC)C(=O)OC)ccc31)[C@H](c1ccccc1OCCO)N1[C@H](c3ccccc3)[C@H](c3ccccc3)OC(=O)[C@H]1[C@@H]2C(=O)N1CCCCCCC1	0.486
Cc1ccc(S[C@]2(C(=O)NCCCN(C)C)CC(=O)N(Cc3ccccc3)[C@@H]2c2ccc(CO)cc2I)cc1	-0.0785
CCN1C(C)=C(C(=O)OC)[C@@H](c2ccccc2)N2C(=O)[C@@]3(C(=O)OC)O[C@@]12[C@@H]1C(=O)CCC[C@@H]13	-0.178
O=C1O[C@@H](c2ccccc2)[C@@H](c2ccccc2)N2[C@@H](c3ccccc3OCCO)[C@]3(C(=O)Nc4ccc(C#CC5=CCCCC5)cc43)[C@@H](C(=O)O)[C@H]12	0.0248
O=C1C[C@@](C(=O)NC2CC2)(c2ccc([N+](=O)[O-])cc2)[C@@H](c2ccc(CO)cc2I)N1CC12CC3CC(CC(C3)C1)C2	0.01
COc1cccc([C@@H]2[C@@H](C)CC[C@H]3C(=O)N4[C@H](c5cccc(OC)c5)[C@@H](C)CC[C@H]4C(=O)N23)c1	-0.0355
C=C(CCCC)C(=O)CC[C@@H](OC(=O)c1cccnc1)c1cccc(OCCO)c1	0.0766
COc1cc2c(cc1OC)CN(C(=O)[C@H]1[C@@H]3C(=O)O[C@@H](c4ccccc4)[C@@H](c4ccccc4)N3[C@@H](c3ccc(O)cc3)[C@]13C(=O)Nc1ccc(C#CC4(O)CCCCCC4)cc13)CC2	0.567

###

Reported composite z-score by item:
Target: Carbonic anhydrase 2 (Homo sapiens)
Assay: CAII small-molecule binders, profiling panel, biochemical, small-molecule microarray, Alexa647-labelled CAII (AID 1122)
Conditions: CAII-A647 binding fluorescence, higher = more signal
measure: composite z-score

> print(dat)
                                entrysmiles   value
1  Cc1ccc(S(=O)(=O)N[C@H]2COC(=O)CC=C[C@H](C)COC(=O)N[C@@H](C)C(=O)CC=C[C@@H]2C)cc1  -0.461
2  COc1cc(CO)cc(I)c1O[C@H]1C=C(C(=O)NCCO)C[C@@H](NCCc2c[nH]c3ccccc23)[C@@H]1O   0.412
3  Cc1ccc(S[C@]2(C(=O)NCCCN(C)C)CC(=O)N(C3CCCCC3)[C@@H]2c2ccc(CO)cc2I)cc1   0.442
4  C[C@]1(C(=O)NCc2ccccc2)c2ccccc2C(=O)N(Cc2cc(C(F)(F)F)cc(C(F)(F)F)c2)[C@H]1c1ccc(CO)cc1   0.529
5  COC(=O)c1c(CC[C@@H](CO)NC(=O)N[C@H](Cn2cc(-c3cncn3C)nn2)C(C)C)oc(C(C)=O)c1C(=O)OC   0.514
6  COC(=O)[C@@]1(Cc2ccccc2N=[N+]=[N-])N=C(c2ccc(OCCCO)cc2)O[C@H]1c1ccccc1CN=[N+]=[N-]   0.571
7  CCOC(=O)C[C@H]1[C@H](OC(=O)Cc2ccc3c(c2)OCO3)[C@@H](NC(=O)c2ccc3ccccc3c2)c2cc(OCCCO)ccc2N1C(=O)Cc1ccc(OC)cc1  0.0553

###

Target: Neurogenic locus notch homolog protein 3 (Homo sapiens)
Test: NOTCH3 binders on small-molecule microarray, primary screen, biochemical, 635/667 nm fluorescence (AID 1096)
Details: NOTCH3 binding, 635 nm fluorescence, higher = more signal
Entry flag: true if composite z-score reaches 0.5; false if it does not.

> print(dat)
                                    compound  classlabel
 1  COCCCNC(=O)[C@@]1(Sc2ccc(C)cc2)CC(=O)N(Cc2cc(C(F)(F)F)cc(C(F)(F)F)c2)[C@@H]1c1ccc(CO)cc1I       false
 2  N#Cc1ccc(NN2C(C(O)CCc3ccccc3)C=CC3C(=O)N(c4ccccc4)C(=O)C32)cc1 (stereo unspecified)        true
 3  CC(c1ccccc1)C(O)C1C=CC2C(=O)N(C)C(=O)C2N1N(c1ccccc1)c1ccccc1 (stereo unspecified)       false
 4  O=C(O)[C@@H]1Cc2c([nH]c3ccccc23)[C@@H](c2ccccc2)N1       false
 5  CCCCCCc1nc(-c2cc(C)c(OC)c(C)c2)cc2c1[Si](C(C)C)(C(C)C)O[C@H]2c1ccccc1       false
 6  CC(=O)Nc1ccc([C@H]2[C@H](C)CC[C@H]3C(=O)N4[C@@H](CC[C@@H](C)[C@@H]4c4ccc(NC(C)=O)cc4)C(=O)N32)cc1        true
 7  COc1ccc([Si](C)(C)[C@H]2[C@H](CCO)O[C@@]3(C(=O)N(Cc4ccc(N5CCCCC5=O)cc4)c4ccccc43)[C@@H]2C)cc1        true
 8  C[C@]1(C(=O)NCCN2CCOCC2)c2ccccc2C(=O)N(Cc2ccccc2)[C@H]1c1ccc(CO)cc1       false
 9  [N-]=[N+]=NCc1ccccc1C[C@]1(C(N)=O)N=C(c2ccc(OCCCO)cc2)O[C@H]1c1ccccc1CN=[N+]=[N-]        true
10  Cc1ccccc1C(O)C1C=CC2C(=O)N(c3ccccc3)C(=O)C2N1Nc1ccc(C#N)cc1 (stereo unspecified)        true
11  CO[C@H]1COC(=O)CC=C[C@@H](C)COC(=O)[C@@H](C)NC(=O)CC=C[C@@H]1C       false
12  CC(C)N1CC=CC23O[C@@H]4/C=C\CCCOC(=O)C4[C@H]2C(=O)N(CCO)[C@@H]3C1=O (stereo partly specified)       false
13  [N-]=[N+]=NCc1ccccc1C[C@]1(C(=O)N2CCCCC2)N=C(c2ccc(OCCCO)cc2)O[C@H]1c1ccccc1CN=[N+]=[N-]        true
14  CN1CCC(CCCO)=CC1C1CC1 (stereo unspecified)       false
15  O=C1OCCC/C=C\[C@H]2OC34C=CCN(CCN5CCOCC5)C(=O)[C@H]3N(CCCCCO)C(=O)[C@@H]4C12 (stereo partly specified)       false
